tested on: HBL100 cells; test: Antiproliferative SRB assay (NCI protocol), 48 h; type: cell-based, human; details: splenocyte CC50 versus HBL100 GI50
Examples of compounds with documented Selectivity Index, HBL100 follow.
Keep it simple and answer with nothing but the number.

Solved cases (8 shown):
                                   compound            recorded_metric  reported_value
0  C=C1C(=O)O[C@@H]2[C@H]1CC[C@H](C)[C@@]1(O[Si](C)(C)C)C=CC(=O)[C@@]21C [Compound 15]  Selectivity Index, HBL100             0.5
1  C#CCOC1CC2C(C)CC3OC(=O)C(=C)C3CC2(C)C1O (stereo not drawn) [Compound 8]  Selectivity Index, HBL100            10.6
2  C=C1C(=O)O[C@@H]2C[C@@H](C)[C@@H]3C=CC(=O)[C@@]3(C)[C@@H](OC(C)=O)[C@H]12 [Compound 12]  Selectivity Index, HBL100             0.1
3  C=C1C(=O)O[C@@H]2C[C@H](C)[C@@H]3C[C@H](O[Si](c4ccccc4)(c4ccccc4)C(C)(C)C)[C@H](O)[C@@]3(C)C[C@H]12 [Compound 7]  Selectivity Index, HBL100            38.6
4  C=C1C(=O)O[C@@H]2C[C@@H](C)[C@@H]3C=CC(=O)[C@@]3(C)[C@@H](O)[C@H]12 [Compound 2, helenalin]  Selectivity Index, HBL100             0.4
5  C=C1C(=O)O[C@@H]2[C@H]1CC[C@H](C)[C@@]1(O)C=CC(=O)[C@@]21C [Compound 3, hymenin]  Selectivity Index, HBL100             0.3
6  C=C1C(=O)O[C@@H]2C[C@H](C)[C@@H]3C[C@H](O[Si](C)(C)C)[C@H](O[Si](C)(C)C)[C@@]3(C)C[C@H]12 [Compound 5]  Selectivity Index, HBL100            18.4
7  C=C1C(=O)OC2CC(C)C3CC(OCc4cn(Cc5ccccc5)nn4)C(OCc4cn(Cc5ccccc5)nn4)C3(C)CC12 (stereo not drawn) [Compound 11]  Selectivity Index, HBL100            81.9

Problem: # input compound: C=C1C(=O)OC2CC(C)C3CC(OCc4cn(Cc5ccccc5)nn4)C(O)C3(C)CC12 (stereo not drawn) [Compound 10] ; wanted: its Selectivity Index, HBL100
Result: 3.9

Problem: # input compound: C=C1C(=O)O[C@@H]2C[C@H](C)[C@@H]3C[C@H](OC(C)=O)[C@H](OC(C)=O)[C@@]3(C)C[C@H]12 [Compound 4] ; wanted: its Selectivity Index, HBL100
Result: 10.5

Problem: # input compound: C=C1C(=O)O[C@@H]2C[C@@H](C)[C@@H]3C=CC(=O)[C@@]3(C)[C@@H](O[Si](C)(C)C(C)C)[C@H]12 [Compound 14] ; wanted: its Selectivity Index, HBL100
Result: 7.0

Cited source for all entries: paper PMC6471591
